Every entry's value here was drawn from ChEMBL document CHEMBL1961873.

Give measured inhibition for each item. Keep answers brief.
target system: Ribosomal protein S6 kinase alpha-2 (Homo sapiens);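 further: value is the mean inhibition of RSK3 within GSK PKIS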
condition parameters: at 1 µM
Give bare numbers, in %.

Example entries and their recorded answers appear below.
[
  {
    "compound": "COc1cc(C=NNc2ncnc3c2cnn3-c2ccccc2)ccc1O",
    "target system": "Ribosomal protein S6 kinase alpha-2 (Homo sapiens)",
    "unit label": "%",
    "inhibition": 7.02
  },
  {
    "compound": "N#Cc1c(NC(=O)c2cccc3ccccc23)sc2c1CCCC2",
    "target system": "Ribosomal protein S6 kinase alpha-2 (Homo sapiens)",
    "unit label": "%",
    "inhibition": 2.14
  },
  {
    "compound": "Cc1ccc(NC(=O)c2ccnc(N3CCCC3)c2)cc1-c1ccc(C(=O)NCC2CC2)cc1",
    "target system": "Ribosomal protein S6 kinase alpha-2 (Homo sapiens)",
    "unit label": "%",
    "inhibition": 5.23
  },
  {
    "compound": "O=C1NC(=O)C(c2ccccc2Cl)=C1Nc1cccc(O)c1",
    "target system": "Ribosomal protein S6 kinase alpha-2 (Homo sapiens)",
    "unit label": "%",
    "inhibition": 6.19
  },
  {
    "compound": "CC(C)=Cc1cccc2c1/C(=N/Nc1ccc(S(N)(=O)=O)cc1)C(=O)N2",
    "target system": "Ribosomal protein S6 kinase alpha-2 (Homo sapiens)",
    "unit label": "%",
    "inhibition": 16.4
  },
  {
    "compound": "COc1ccc(-c2coc3ncnc(N)c23)cc1",
    "target system": "Ribosomal protein S6 kinase alpha-2 (Homo sapiens)",
    "unit label": "%",
    "inhibition": 2.21
  }
]

Lab note: each compound below needs its inhibition filled in.
1. COc1cc2ncn(-c3cc(O[C@H](C)c4ccccc4Cl)c(C(N)=O)s3)c2cc1OC
2. CC1=C(C(=O)Nc2ccc3[nH]ncc3c2)C(c2ccc(Cl)c(Cl)c2)CC(=O)N1 (stereo unspecified)
3. Nc1nc(-c2ccc3c(c2)C(=Cc2cc(Br)c(O)c(Br)c2)C(=O)N3)cs1
4. COc1ccc(-c2ccncc2)cc1C(N)=O
5. CC1=C(C(=O)Nc2ccc3[nH]ncc3c2)C(c2ccc3ccccc3c2)CC(=O)N1 (stereo unspecified)

A)
1. 10.6
2. 13.2
3. 1.44
4. 5.01
5. 13.7

* * *

Give measured inhibition for each item. Keep answers brief.
target system: cAMP-dependent protein kinase catalytic subunit alpha (Homo sapiens) (UniProt P17612);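 further: mean percent inhibition of PKA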
condition parameters: at 1 µM
One number for each entry, in %.

Example entries and their recorded answers appear below.
[
  {
    "molecule": "COc1cc2ncn(-c3cc(OCc4ccccc4Cl)c(C(N)=O)s3)c2cc1OC",
    "inhibition [%]": -0.94
  },
  {
    "molecule": "COc1cc2c(cc1Nc1nc(N3CCc4ccccc43)c3cc[nH]c3n1)N(C(=O)CN(C)C)CC2",
    "inhibition [%]": 0.85
  },
  {
    "molecule": "Fc1cccc(COc2ccc(Nc3ncnc4cc(-c5ccc[nH]5)sc34)cc2Cl)c1",
    "inhibition [%]": -0.52
  },
  {
    "molecule": "CC1=C(C(=O)Nc2ccc3[nH]ncc3c2)C(c2ccc(Cl)c(Cl)c2)CC(=O)N1 (centres undefined)",
    "inhibition [%]": 43.1
  },
  {
    "molecule": "Cc1nn(C)c2cc(N(C)c3ccnc(Nc4cccc(S(N)(=O)=O)c4)n3)ccc12",
    "inhibition [%]": 6.18
  }
]

Lab note: each molecule below needs its inhibition filled in.
1. CS(=O)(=O)Nc1ccc(N/C=C2\C(=O)Nc3ccccc32)cc1
2. O=C1NC(=O)C(c2cccc(Cl)c2)=C1Nc1ccc(O)c(Cl)c1
3. CCn1c(-c2nonc2N)nc2c(N3CCCC3)nccc21

A)
0.29
1.73
1.34

* * *

Give measured inhibition for each item. Keep answers brief.
target system: Mast/stem cell growth factor receptor Kit (Homo sapiens) (UniProt P10721);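 further: values given as mean inhibition of KIT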
Sequence (P10721 whole entry): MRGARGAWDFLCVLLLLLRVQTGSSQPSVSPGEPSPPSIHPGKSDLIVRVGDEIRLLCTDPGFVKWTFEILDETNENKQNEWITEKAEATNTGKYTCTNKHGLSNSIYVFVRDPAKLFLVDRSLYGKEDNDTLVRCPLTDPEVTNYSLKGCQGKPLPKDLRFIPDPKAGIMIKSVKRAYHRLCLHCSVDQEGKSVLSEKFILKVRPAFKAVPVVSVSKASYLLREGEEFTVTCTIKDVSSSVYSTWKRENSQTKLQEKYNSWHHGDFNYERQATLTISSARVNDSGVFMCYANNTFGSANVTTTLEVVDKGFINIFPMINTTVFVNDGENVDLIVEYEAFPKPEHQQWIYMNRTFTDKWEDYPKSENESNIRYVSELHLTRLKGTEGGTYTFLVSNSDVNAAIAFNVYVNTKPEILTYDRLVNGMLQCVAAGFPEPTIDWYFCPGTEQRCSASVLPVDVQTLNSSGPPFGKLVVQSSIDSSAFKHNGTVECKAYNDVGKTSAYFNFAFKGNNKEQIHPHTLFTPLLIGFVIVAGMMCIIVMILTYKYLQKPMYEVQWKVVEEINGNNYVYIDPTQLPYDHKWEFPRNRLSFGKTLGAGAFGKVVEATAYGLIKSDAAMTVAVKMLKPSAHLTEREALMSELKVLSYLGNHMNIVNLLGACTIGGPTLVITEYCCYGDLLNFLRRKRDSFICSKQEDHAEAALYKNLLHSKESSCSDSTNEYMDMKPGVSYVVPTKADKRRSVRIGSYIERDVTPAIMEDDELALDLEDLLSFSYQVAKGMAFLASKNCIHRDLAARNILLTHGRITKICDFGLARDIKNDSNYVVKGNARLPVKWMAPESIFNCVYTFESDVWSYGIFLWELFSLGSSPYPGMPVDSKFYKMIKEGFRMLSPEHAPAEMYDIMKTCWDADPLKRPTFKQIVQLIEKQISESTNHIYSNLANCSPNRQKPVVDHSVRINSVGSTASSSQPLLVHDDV
condition parameters: at 1 µM
Give bare numbers, in %.

Example entries and their recorded answers appear below.
[
  {
    "structure": "COc1ccc(-c2nn3ncccc3c2-c2ccnc(Nc3ccc(Cl)c(C(F)(F)F)c3)n2)cc1",
    "value": 8.96
  },
  {
    "structure": "Cc1ccc(NC(=O)c2ccnc(N3CCCC3)c2)cc1-c1ccc(C(=O)NCC2CC2)cc1",
    "value": 2.92
  },
  {
    "structure": "Nc1ncnc2occ(-c3ccc(NC(=O)Nc4cccc(C(F)(F)F)c4)cc3)c12",
    "value": 97.3
  },
  {
    "structure": "CN1CCC(C(=O)Nc2n[nH]c3nnc(-c4ccccc4)cc23)CC1",
    "value": 8.5
  }
]

Q) Given the entry `CS(=O)(=O)CCN(CC#N)Cc1ccc(-c2ccc3ncnc(Nc4ccc(OCc5cccc(F)c5)c(Cl)c4)c3c2)o1` , report its measured inhibition.
A) 0.7

* * *

target system: Inhibitor of nuclear factor kappa-B kinase subunit alpha (Homo sapiens) (UniProt O15111);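 further: mean percent inhibition from GSK PKIS profiling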
Sequence (whole entry): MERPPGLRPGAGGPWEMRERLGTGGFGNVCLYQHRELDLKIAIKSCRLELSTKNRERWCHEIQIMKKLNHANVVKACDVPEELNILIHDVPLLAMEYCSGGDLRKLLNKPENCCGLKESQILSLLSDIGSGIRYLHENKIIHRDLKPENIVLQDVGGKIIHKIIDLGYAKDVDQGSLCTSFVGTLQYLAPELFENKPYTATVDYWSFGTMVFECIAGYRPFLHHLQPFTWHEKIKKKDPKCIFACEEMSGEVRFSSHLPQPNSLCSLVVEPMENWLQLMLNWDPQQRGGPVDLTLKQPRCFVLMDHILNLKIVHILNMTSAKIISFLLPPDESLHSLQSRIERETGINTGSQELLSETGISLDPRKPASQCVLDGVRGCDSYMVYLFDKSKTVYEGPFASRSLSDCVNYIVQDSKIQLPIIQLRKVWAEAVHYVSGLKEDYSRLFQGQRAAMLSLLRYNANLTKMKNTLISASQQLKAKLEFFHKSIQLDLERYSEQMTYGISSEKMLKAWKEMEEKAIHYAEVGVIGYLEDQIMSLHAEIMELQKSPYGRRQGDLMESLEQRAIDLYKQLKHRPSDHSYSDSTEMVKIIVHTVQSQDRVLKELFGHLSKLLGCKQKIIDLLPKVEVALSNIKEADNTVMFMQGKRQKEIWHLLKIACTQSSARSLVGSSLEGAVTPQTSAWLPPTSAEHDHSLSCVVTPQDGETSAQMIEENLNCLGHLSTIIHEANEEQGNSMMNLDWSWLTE
condition parameters: at 0.1 µM
Give measured inhibition for each item. Keep answers brief.
Answers are plain numbers, in %.

Example entries and their recorded answers appear below.
[
  {
    "structure": "CCCN1CCC(Oc2cc(Nc3nc(Nc4cccc(F)c4C(N)=O)c4cc[nH]c4n3)c(OC)cc2Cl)CC1",
    "target system": "Inhibitor of nuclear factor kappa-B kinase subunit alpha (Homo sapiens) (UniProt O15111)",
    "unit label": "%",
    "value": -0.06
  },
  {
    "structure": "CCCN1CCC=C(c2ccc(Nc3nc(Nc4ccccc4C(N)=O)c4cc[nH]c4n3)c(C)c2)C1",
    "target system": "Inhibitor of nuclear factor kappa-B kinase subunit alpha (Homo sapiens) (UniProt O15111)",
    "unit label": "%",
    "value": 13.6
  }
]

Lab note: each compound below needs its inhibition filled in.
1. CN1CCC(C(=O)Nc2n[nH]c3nnc(-c4ccccc4)cc23)CC1
2. COC(=O)Nc1nc2cc(Oc3cccc(NC(=O)Nc4cc(C(F)(F)F)ccc4F)c3)ccc2[nH]1

A)
1: 6.86; 2: -3.67

* * *

target system: Interleukin-1 receptor-associated kinase 4 (Homo sapiens) (UniProt Q9NWZ3);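 further: mean inhibition values, from the GSK PKIS dataset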
Sequence (whole entry): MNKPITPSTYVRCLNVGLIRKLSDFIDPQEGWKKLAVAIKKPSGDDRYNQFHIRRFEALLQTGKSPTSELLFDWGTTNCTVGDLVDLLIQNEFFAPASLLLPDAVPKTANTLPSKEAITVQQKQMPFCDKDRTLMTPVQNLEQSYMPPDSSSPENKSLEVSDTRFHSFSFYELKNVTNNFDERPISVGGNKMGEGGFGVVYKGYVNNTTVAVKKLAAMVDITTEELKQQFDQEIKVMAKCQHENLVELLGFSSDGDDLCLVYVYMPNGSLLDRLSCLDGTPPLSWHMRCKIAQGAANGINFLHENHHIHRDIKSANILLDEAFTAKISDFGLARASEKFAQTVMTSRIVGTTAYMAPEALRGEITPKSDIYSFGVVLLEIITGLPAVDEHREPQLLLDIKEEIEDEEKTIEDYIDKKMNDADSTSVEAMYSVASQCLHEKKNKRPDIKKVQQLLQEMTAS
condition parameters: at 1 µM
Give measured inhibition for each item. Keep answers brief.
Give bare numbers, in %.

Example entries and their recorded answers appear below.
[
  {
    "structure": "c1cnn2ncc(-c3ccnc(Nc4ccc5c(c4)OCCO5)n3)c2c1",
    "observable": "inhibition",
    "unit label": "%",
    "value": 7.85
  },
  {
    "structure": "Cn1cc(C=C2C(=O)Nc3cccnc32)c2ccccc21",
    "observable": "inhibition",
    "unit label": "%",
    "value": 5.04
  },
  {
    "structure": "CCn1c(-c2nonc2N)nc2cnc(Oc3cccc(NC(=O)c4ccc(OCCN5CCOCC5)cc4)c3)cc21",
    "observable": "inhibition",
    "unit label": "%",
    "value": 1.66
  },
  {
    "structure": "Nc1nc(-c2ccccn2)c(-c2ccc3ncccc3n2)s1",
    "observable": "inhibition",
    "unit label": "%",
    "value": 1.27
  }
]

Next compound, inhibition to be filled in.
Q) Given the entry `CCn1c(-c2nonc2N)nc2c(C#CC(C)(C)O)nc(OC[C@@H](N)c3ccccc3)cc21` , report its measured inhibition.
A) 0.37
